System tested: GRID2IP_2, A4D2P6
Sequence (A4D2P6 272-370): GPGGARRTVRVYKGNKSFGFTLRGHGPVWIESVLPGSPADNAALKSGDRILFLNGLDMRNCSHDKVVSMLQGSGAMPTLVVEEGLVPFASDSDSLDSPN
Test protocol: holdup assay
Design: key: below the threshold = too weak to quantify, mostly under pKd 3.1 to 4
Cond: plain residues with an end cap or a label only (N-terminal biotin on a linker: ado-ado)

# Binder, pKd
rows = [
    ("PDGQCTVTEV [RNF146, Q9NTX7]", 4.17),
    ("SAAKVLTSMC [GHRHR, Q02643]", 4.38),
]
